Test summary: Single dose PK (AUCinf) in Phase 1 studies, effect of meal type on Compound 1 exposure and variability
Assay type: in vivo, human
Measurement parameters: human, in vivo, oral, 100 mg, 100 mg (20% drug load), fasted, N=12; read-out: Compound 1 AUCinf (% CV) Fasted
Property label: AUC(0-inf) (ng·h/mL)
State just the number; it will be interpreted in ng·h/mL.

Note down AUC(0-inf) recorded for O=C(O)c1ccnc(N2CC(O)(c3ccc(OCc4c(-c5c(Cl)cccc5Cl)noc4C4CC4)cc3Cl)C2)c1 [Compound 1, cilofexor]
7740

----------
Test summary: Single dose PK (AUCinf) in Phase 1 studies, effect of meal type on Compound 1 exposure and variability
Assay type: in vivo, human
Measurement parameters: human, in vivo, oral, 30 mg, 30 mg (20% drug load), fasted, N=20; read-out: Compound 1 AUCinf (% CV) Fasted
Property label: AUC(0-inf) (ng·h/mL)
Your answer is read as ng·h/mL, so omit the unit and give the number.

Please supply the value of reported AUC(0-inf) for the item O=C(O)c1ccnc(N2CC(O)(c3ccc(OCc4c(-c5c(Cl)cccc5Cl)noc4C4CC4)cc3Cl)C2)c1 [Compound 1, cilofexor]
1870

----------
Test summary: Single dose PK (AUCinf) in Phase 1 studies, effect of meal type on Compound 1 exposure and variability
Assay type: in vivo, human
Measurement parameters: human, in vivo, oral, 30 mg, 30 mg (20% drug load), light-fat meal, N=30; read-out: Compound 1 AUCinf (% CV) Fed
Property label: AUC(0-inf) (ng·h/mL)
Numbers only here, please. The scale is ng·h/mL.

Name the recorded AUC(0-inf) of the molecule listed here: O=C(O)c1ccnc(N2CC(O)(c3ccc(OCc4c(-c5c(Cl)cccc5Cl)noc4C4CC4)cc3Cl)C2)c1 [Compound 1, cilofexor]
608
